- Test protocol: Antiproliferative activity against multidrug-resistant P-gp expressing human KBVIN cells by sulforhodamine B assay
- Type: functional
Quantity name: GI50

For the compound shown here, `C=C1[C@H]2C[C@@H]3C4N5C[C@]6(C)CCC[C@@]47[C@@H]6[C@@]5(OC(=O)c4ccc(OC)cc4)C[C@]3([C@@H]1O)[C@H]7[C@H]2OC(=O)c1ccc(OC)cc1` , give the reported GI50.
> 20 µM

Again, but for `C=C1[C@H]2C[C@@H]3C4N5C[C@]6(C)CCC[C@@]47[C@@H]6[C@@]5(O)C[C@]3([C@@H]1O)[C@H]7[C@H]2OC(c1ccccc1)(c1ccccc1)c1ccccc1`
5.2 µM

`C=C1[C@H]2C[C@@H]3C4N5C[C@]6(C)CCC[C@@]47[C@@H]6[C@@H]5C[C@]3([C@@H]1OC(C)=O)[C@H]7[C@H]2OC(C)=O` , same question.
> 20 µM

meta.source: ChEMBL document CHEMBL3400028
